target of assay: purified human Hsp90
test description: Binding Assay: fluorescence polarization with BODIPY-labeled geldanamycin
test conditions: BODIPY-GM 10 nM, Hsp90 30 nM
pIC50: −log10 of the molar value.
quantity kind: pIC50

# compound, pIC50
records = [
    ("C[C@H](N)C(=O)N1CCC(CCn2c(Sc3nc4cccc(Cl)c4s3)nc3c(N)ncnc32)CC1 [Example 774]", 6.70),
]

[P] COc1ccc(OC)c(Sc2nc3c(N)ncn(CCc4ccccc4)c-3n2)c1 [Example 2]
[Q] COc1ccc(Sc2nc3c(N)ncnc3n2CCc2ccccc2)c(OC)c1 [Example 15]
Identify the item whose pIC50 is the smaller number: P or Q Indicate your choice by writing its label.
Q
